Tested on: Candida albicans
assayNotes: Synergistic antifungal activity against Candida albicans ATCC 64124 assessed as compound MIC measured after 48 hrs in presence of voriconazole by checkboard based microplate reader analysis
Format: functional

chemSmiles: O=C(CCCN1CCC(O)(c2ccc(Br)cc2)CC1)c1ccccc1
MIC: 32 µg/mL
--
chemSmiles: O=C(CCCN1CCC(O)(c2ccc(Br)cc2)CC1)c1ccc(F)cc1
MIC: 8 µg/mL
--
chemSmiles: COc1ccc(C(=O)CCCN2CCC(O)(c3ccc(Br)cc3)CC2)cc1
MIC: 128 µg/mL
--
chemSmiles: O=C(CCCN1CCC(O)(c2ccc(Br)cc2)CC1)c1ccc(Br)cc1
MIC: 32 µg/mL
--
chemSmiles: O=C(CCCN1CCC(O)(c2ccc(Br)cc2)CC1)c1ccc(Cl)cc1
MIC: 16 µg/mL

* * *

assayNotes: Cytotoxicity against human HEK293 cells assessed as cell survival at 1 to 16 microg/ml in presence of posaconazole by XTT assay
Type: toxicity, cell-based
conditionLabel: at 1 to 16 µg/mL, dose 1-16 µg/ml
reportedProperty: viability

chemSmiles: O=C(CCCN1CCC(O)(c2ccc(Br)cc2)CC1)c1ccc(F)cc1
resultValue: 80%

* * *

Tested on: Candida albicans
assayNotes: Synergistic antifungal activity against Candida albicans ATCC 10231 assessed as compound MIC measured after 48 hrs in presence of itraconazole by checkboard based microplate reader analysis
Format: functional

chemSmiles: O=C(CCCN1CCC(O)(c2ccc(Br)cc2)CC1)c1ccc(Br)cc1
experimentalTarget: Candida albicans
prefixOperator: =
MIC, µg/mL: 64
--
chemSmiles: O=C(CCCN1CCC(O)(c2ccc(Br)cc2)CC1)c1ccccc1
experimentalTarget: Candida albicans
prefixOperator: =
MIC, µg/mL: 64
--
chemSmiles: O=C(CCCN1CCC(O)(c2ccc(Br)cc2)CC1)c1ccc(Cl)cc1
experimentalTarget: Candida albicans
prefixOperator: >
MIC, µg/mL: 32
--
chemSmiles: O=C(CCCN1CCC(O)(c2ccc(Br)cc2)CC1)c1ccc(F)cc1
experimentalTarget: Candida albicans
prefixOperator: =
MIC, µg/mL: 64
--
chemSmiles: COc1ccc(C(=O)CCCN2CCC(O)(c3ccc(Br)cc3)CC2)cc1
experimentalTarget: Candida albicans
prefixOperator: >
MIC, µg/mL: 128

* * *

Tested on: Candida albicans
assayNotes: Additive antifungal activity against Candida albicans ATCC MYA-1237 assessed as fractional inhibitory concentration index measured for 72 hrs in presence of posaconazole
Assay type: functional
Measured fractional inhibitory concentration index (FICI), listed per entry for reference.
reportedProperty: fractional inhibitory concentration index (FICI)

chemSmiles: O=C(CCCN1CCC(O)(c2ccc(Br)cc2)CC1)c1ccc(F)cc1
resultValue: 2
--
chemSmiles: O=C(CCCN1CCC(O)(c2ccc(Br)cc2)CC1)c1ccc(Br)cc1
resultValue: 2
--
chemSmiles: CC[C@@H]([C@H](C)O)n1ncn(-c2ccc(N3CCN(c4ccc(OC[C@@H]5CO[C@@](Cn6cncn6)(c6ccc(F)cc6F)C5)cc4)CC3)cc2)c1=O
resultValue: 2
--
chemSmiles: COc1ccc(C(=O)CCCN2CCC(O)(c3ccc(Br)cc3)CC2)cc1
resultValue: 2
--
chemSmiles: O=C(CCCN1CCC(O)(c2ccc(Br)cc2)CC1)c1ccc(Cl)cc1
resultValue: 1.02

* * *

assayNotes: Cytotoxicity against HEK293 cells assessed as cell survival at 16 microg/ml by XTT assay
Format: toxicity, cell-based
conditionLabel: human, at 16 µg/mL, read-out: Activity

chemSmiles: CC[C@@H]([C@H](C)O)n1ncn(-c2ccc(N3CCN(c4ccc(OC[C@@H]5CO[C@@](Cn6cncn6)(c6ccc(F)cc6F)C5)cc4)CC3)cc2)c1=O
u: %
viability at 16 microg/ml: 45
